Cited source for all entries: paper PMC10527014

# system: UniProtKB Q12809
# Sequence (Q12809 whole entry): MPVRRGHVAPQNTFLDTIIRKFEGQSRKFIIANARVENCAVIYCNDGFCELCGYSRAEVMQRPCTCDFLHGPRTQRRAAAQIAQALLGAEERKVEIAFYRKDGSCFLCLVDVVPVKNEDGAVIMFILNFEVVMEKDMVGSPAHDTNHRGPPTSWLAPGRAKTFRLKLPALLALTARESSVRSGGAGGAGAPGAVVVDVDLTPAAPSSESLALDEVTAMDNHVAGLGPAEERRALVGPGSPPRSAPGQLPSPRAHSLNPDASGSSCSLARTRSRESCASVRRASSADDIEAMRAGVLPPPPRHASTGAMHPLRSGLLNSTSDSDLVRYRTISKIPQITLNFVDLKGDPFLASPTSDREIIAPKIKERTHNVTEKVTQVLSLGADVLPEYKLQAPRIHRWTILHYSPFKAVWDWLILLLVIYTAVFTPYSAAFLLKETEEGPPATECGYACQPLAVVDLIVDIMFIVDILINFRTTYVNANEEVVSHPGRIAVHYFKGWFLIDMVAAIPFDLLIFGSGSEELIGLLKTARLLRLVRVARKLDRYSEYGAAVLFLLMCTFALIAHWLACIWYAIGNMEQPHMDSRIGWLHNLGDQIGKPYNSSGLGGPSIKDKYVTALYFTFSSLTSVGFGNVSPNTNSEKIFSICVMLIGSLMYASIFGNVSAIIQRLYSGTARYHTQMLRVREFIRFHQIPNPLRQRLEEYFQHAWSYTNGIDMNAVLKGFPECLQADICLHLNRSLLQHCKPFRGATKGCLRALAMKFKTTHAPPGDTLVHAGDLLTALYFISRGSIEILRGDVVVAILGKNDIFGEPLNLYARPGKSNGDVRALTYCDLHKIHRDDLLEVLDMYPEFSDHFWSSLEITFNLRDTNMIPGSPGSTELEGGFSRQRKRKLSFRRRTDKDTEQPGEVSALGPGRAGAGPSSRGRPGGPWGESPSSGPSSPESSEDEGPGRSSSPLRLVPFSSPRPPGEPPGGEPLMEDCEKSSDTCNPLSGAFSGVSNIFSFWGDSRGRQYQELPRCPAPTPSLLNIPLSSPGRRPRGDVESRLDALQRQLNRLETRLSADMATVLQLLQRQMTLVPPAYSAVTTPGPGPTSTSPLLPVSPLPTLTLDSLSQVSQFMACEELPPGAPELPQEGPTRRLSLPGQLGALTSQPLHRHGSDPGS
# experiment_summary: hERG inhibition
# particulars: read-out: hERG inhibition IC50
assay_endpoint: IC50

Q) Value lookup for IC50; key = "Cc1cc(-c2noc(C(F)(F)F)n2)ccc1OCCCc1cc(C(=O)N(C)C)no1"
A) > 100 µM

====

# System: Coxsackievirus B3-Woodruff (CVB3)
# experiment_summary: microbe, parasite or virus in culture
# particulars: B3|CVB3, HeLa, read-out: Inhibitory concentration EC50 against CVB3-Woodruff, HeLa cells, adding drug to virus and then infecting at MOI 3 PFU / cell, ± SEM
assay_endpoint: pEC50
Answers are plain numbers, as −log10 of the molar value.

Q) Fill in the blank: the reported pEC50 of Cc1cc(CCCOc2c(C)cc(-c3noc(C(F)(F)F)n3)cc2C)on1 [Pleconaril] is ____.
A) 6.48
